run-description: Kinetic solubility of the compound in PBS buffer at pH 7.4
Format: physicochemical
condition-label: read-out: Kinetic_solubility
// class 0 strictly below 20 µg/mL in solubility kinetic; class 1 otherwise

| compound | answer-label |
| --- | --- |
| O=C1c2ccsc2-c2nccc3ccnc1c23 | class 1 |
| Cn1ccc2c1C(=O)c1nccc3ccnc-2c13 | class 1 |
| O=C1c2ccccc2-c2nccc3ccnc1c23 [SAMPANGINE] | class 0 |
| CC1(C)CC2=C(O1)C(=O)c1nccc3ccnc2c13 | class 1 |
| Cn1cc2c(c1)-c1nccc3ccnc(c13)C2=O | class 0 |

----------
Entries annotated with measured MIC80
Test system: Nakaseomyces glabratus
run-description: Antifungal activity against Candida glabrata after 24 hrs by serial dilution method
Assay type: functional

| structure-string | tgt | units-symbol | censoring-sign | MIC80 |
| --- | --- | --- | --- | --- |
| CC(=O)Nc1ccc(-c2cc3ccnc4c3c(n2)-c2sccc2C4=O)cc1 | Nakaseomyces glabratus | mg/L | > | 64 |
| O=C1c2cc(Cl)sc2-c2nccc3c(Cl)cnc1c23 | Nakaseomyces glabratus | mg/L | > | 64 |
| O=C1c2ccsc2-c2nc(-c3cccnc3)cc3ccnc1c23 | Nakaseomyces glabratus | mg/L | > | 64 |
| O=C1c2ccccc2-c2nccc3ccnc1c23 | Nakaseomyces glabratus | mg/L | = | 0.125 |
| CC1(C)CC2=C(O1)C(=O)c1nccc3ccnc2c13 | Nakaseomyces glabratus | mg/L | = | 0.125 |
| O=C1c2ccsc2-c2nccc3c(Cl)cnc1c23 | Nakaseomyces glabratus | mg/L | = | 0.5 |
| O=C1c2occc2-c2nccc3ccnc1c23 | Nakaseomyces glabratus | mg/L | = | 32 |
| O=C1c2ccsc2-c2nccc3c(Br)cnc1c23 | Nakaseomyces glabratus | mg/L | = | 4 |
| O=C1c2cc(Br)sc2-c2nccc3ccnc1c23 | Nakaseomyces glabratus | mg/L | = | 4 |
| O=C1c2ccsc2-c2nc(-c3ccccc3)cc3ccnc1c23 | Nakaseomyces glabratus | mg/L | > | 64 |
| Cn1cc2c(c1)-c1nccc3ccnc(c13)C2=O | Nakaseomyces glabratus | mg/L | > | 64 |
| Cn1ccc2c1C(=O)c1nccc3ccnc-2c13 | Nakaseomyces glabratus | mg/L | = | 32 |

----------
Tested on: Aspergillus fumigatus
run-description: Antifungal activity against Aspergillus fumigatus after 7 days by serial dilution method
Assay type: functional
condition-label: 168 h
Entries annotated with measured MIC80
readout-type: MIC80 (µg/mL)

| molecule | units-symbol | censoring-sign | quantitative-result |
| --- | --- | --- | --- |
| Cc1ccccc1-c1cc2ccnc3c2c(n1)-c1sccc1C3=O | µg/mL | > | 64 |
| O=C1c2occc2-c2nccc3ccnc1c23 | µg/mL | = | 32 |
| O=C1c2ccsc2-c2nccc3ccnc1c23 | µg/mL | = | 1 |
| OC(Cn1cncn1)(Cn1cncn1)c1ccc(F)cc1F [FLUCONAZOLE] | µg/mL | > | 64 |
| COc1cnc2c3c(nccc13)-c1sccc1C2=O | µg/mL | > | 64 |
| O=C1c2cc(Br)sc2-c2nccc3ccnc1c23 | µg/mL | = | 4 |
| CC1(C)CC2=C(O1)C(=O)c1nccc3ccnc2c13 | µg/mL | = | 1 |
| CN1CCN(c2cnc3c4c(nccc24)-c2sccc2C3=O)CC1 | µg/mL | > | 64 |
| O=C1c2ccoc2-c2nccc3ccnc1c23 | µg/mL | = | 32 |
| O=C1c2ccsc2-c2nc(-c3cccnc3)cc3ccnc1c23 | µg/mL | > | 64 |
| O=C1c2cc(Cl)sc2-c2nccc3c(Cl)cnc1c23 | µg/mL | > | 64 |
| O=C1c2ccsc2-c2nccc3c(Br)cnc1c23 | µg/mL | = | 8 |

----------
System: Nakaseomyces glabratus
run-description: Antifungal activity against Candida glabrata after 24 hrs by serial dilution method
Format: functional
Entries annotated with measured MIC80
readout-type: MIC80 (µg/mL)

| structure-string | censoring-sign | quantitative-result |
| --- | --- | --- |
| CN1CCN(c2cnc3c4c(nccc24)-c2sccc2C3=O)CC1 | = | 64 |
| COc1cnc2c3c(nccc13)-c1sccc1C2=O | > | 64 |
| O=C1c2ccoc2-c2nccc3ccnc1c23 | = | 64 |
| O=C1c2ccsc2-c2nccc3ccnc1c23 | = | 4 |
| Cc1ccccc1-c1cc2ccnc3c2c(n1)-c1sccc1C3=O | > | 64 |
| OC(Cn1cncn1)(Cn1cncn1)c1ccc(F)cc1F | = | 0.25 |

----------
Entries annotated with measured MIC80
Test system: Aspergillus fumigatus
run-description: Antifungal activity against Aspergillus fumigatus after 7 days by serial dilution method
Type: functional
condition-label: 168 h

| structure-string | censoring-sign | MIC80 (µg/mL) |
| --- | --- | --- |
| CC(=O)Nc1ccc(-c2cc3ccnc4c3c(n2)-c2sccc2C4=O)cc1 | > | 64 |
| O=C1c2ccsc2-c2nccc3c(Cl)cnc1c23 | = | 2 |
| O=C1c2ccccc2-c2nccc3ccnc1c23 | = | 16 |
| Cn1ccc2c1C(=O)c1nccc3ccnc-2c13 | = | 64 |
| Cn1cc2c(c1)-c1nccc3ccnc(c13)C2=O | > | 64 |
| O=C1c2ccsc2-c2nc(-c3ccccc3)cc3ccnc1c23 | > | 64 |
